Source listed as patent US20190351049A1.

SYSTEM_TESTED: MERS RBD-hFc (MERS-CoV (isolate EMC/2012))
PROTOCOL_DETAILS: SPR (Biacore), hybridoma supernatant antibody captured, MERS RBD-hFc as analyte
TEST_READOUT: Kd (pM)
Quick reminder: number only, in pM, skip the unit.

INPUT: Output measured Kd for this item: H2aM15270N (antibody, V domains shown) VH: EVQLLESGGGLEQPGGSLRLSCAASGFTFSSYAMIWVRQAPGKGLEWVSTISGSGVNTYYADSVKGRFTISRDNSKNTLHLQMNSLRAEDTAVYHCAKEGLDCANGVCYNYYGMDVWGQGTTVTVSS VL: DIQMTQSPSSLSASVGDRVTITCRASQSINSFLNWYHQKPGKAPKFLIYSASNLQSGVPSRFSGSGSGTDFTLTISSLQPEDFSTYYCQQSYSIPLTFGGGTKVEIK
OUTPUT: 1790

INPUT: Output measured Kd for this item: H1M15289N (antibody, V domains shown) VH: QVQLQESGPGLVKPSETLSLTCTVSGGSISSYYWSWIRQPPGKGLEWIGYIYYSGSANYNPSLKSRVTISVDTSKNQFSLKLSSVTAADTAVYYCVRDRDLLLDHWGQGTLVTVSS VL: EIVMTQSPATLSVSPGKRATLSCRASQSVSSNLAWYQQKPGQAPRLLIYGASTRTTGFPARFSGSGSGTDFTLTISSLQSEDFAVYYCQQYNNWPYTFGQGTMLEIK
OUTPUT: 669

INPUT: Output measured Kd for this item: H2aM15279N (antibody, V domains shown) VH: EVQLLESGGGLVQTGGSLRLSCAASGFTFSNYAMSWVRQAPGKGLEWVSAISDRGGSIYYADSVKGRFTISRDNSKNTKYLQMDSLRAEDTAVYYCAQDRGFGVFDYWGQGTLVTVSS VL: DIQMTQSPSSLSASVGDRVTITCQASQDIGNYLNWFQQRPGKAPNLLIYGASNLETGVPSRFSGGGSGTDFTFTISSLQPEDIATYFCQQYDNLPFTFGPGTKVEIK
OUTPUT: 266
